Items are presented alongside their recorded SPR binding (control subtracted).
- Target Entity: T1, murine CD300E-Fc (mouse)
- T1 construct: mouse IgG2a-Fc fusion (R&D Systems); the entry is the whole fusion chain; also called mCD300E; Mouse CD300E-Fc
- T1 chain: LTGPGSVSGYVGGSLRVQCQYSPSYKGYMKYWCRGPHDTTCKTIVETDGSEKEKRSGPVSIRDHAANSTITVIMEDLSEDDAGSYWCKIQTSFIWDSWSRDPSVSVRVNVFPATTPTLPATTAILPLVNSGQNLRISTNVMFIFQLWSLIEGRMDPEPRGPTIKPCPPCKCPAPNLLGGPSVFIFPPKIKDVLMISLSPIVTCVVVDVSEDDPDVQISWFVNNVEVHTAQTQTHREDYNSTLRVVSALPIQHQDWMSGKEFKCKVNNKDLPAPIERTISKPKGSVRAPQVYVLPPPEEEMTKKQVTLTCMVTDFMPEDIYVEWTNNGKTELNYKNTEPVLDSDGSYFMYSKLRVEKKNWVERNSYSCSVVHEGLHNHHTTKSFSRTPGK
- Assay Explanation: SPR (Carterra LSA), antibody immobilised, Fc fusion at 300 or 600 nM
- Method: Binding of mouse anti-CD300LB IgG1 antibodies of the present disclosure to human and murine CD300 orthologs were evaluated by surface plasmon resonance (SPR) using a Carterra LSA instrument (Carterra, Salt Lake City, UT). […] Binding was assessed by injecting each analyte over the entire antibody array using the single channel flow cell. […] Data were processed and analyzed using NextGenKIT high-throughput kinetics analysis software (Carterra). […]

Binder	SPR binding (control subtracted)
anti-CD300LB antibody CD-16 (antibody, V domains shown) VH: QIQLVQSGPELKKPGETVKISCKASGYTFTDYSMHWVKQAPGKGLKWMAWINTETGEPTYADDFRGRFAFSLETSGRTAYLEINNLRNEDTATYFCVTYGSSYGMAYWGQGTSVTVSS VL: DIVLTQSPASLAVSLGQRATISCRASKSVSRSGYSYLHWYQQKPGQPPKLLIYLASKLESGVPARFSGSGSGTDFTLNIHPVEAEDAATYYCQHNREIPPTFGGGTKLEIK	8.6
anti-CD300LB antibody CD-13 (antibody, V domains shown) VH: QIQLVQSGPELKKPGETVKISCKASGYTFTDYSMHWVKQAPGKGFKWMAWINTETGAPTHADDFRGRFAFSLETSASTAFLQISNLKTEDTATYFCVTFGKSYGMNYWGQGTSVTVSS VL: DIVLTQSPASLSVSLGQRATISCRASKSVGSSGSSYLHWYQQKPGQPPKLLIYLASNLESGVPARFSGSGSGTEFTLNIHPVEEEDAATYYCQHNAEVPPTFGGGTKLEIK	4.5
anti-CD300LB antibody CD-17 (antibody, V domains shown) VH: QIQLVQSGPELKKPGETVKISCKASGYTLTDYSMHWVKQAPGKGLKWMGWINTETGEPRYGDDFKGRFAFSLETSASSAYLQINNLKNDDTATYFCATYGRSYGMDFWGQGTSVTVSS VL: DIVLTQSPASLAVSLGQRATISCRASKSVSPSGHSYMHWYQQKPGQPPKLLIYLASNLKSGVPARFSGSGSGTDFTLNIHPVEEGDAATYYCQHNRELPPTFGGGSKLEIK	-0.7
anti-CD300LB antibody CD-15 (antibody, V domains shown) VH: QIQLVQSGPELKKPGETVKISCQVSGYTFTDYSMHWLKQAPGKGLKWMAWINTETGESTYTDEFKGRFVFSLETSVRTAYLKINNLKNEDTATYFCGTYGSSYGMAYWGQGTSVTVSS VL: DIVLTQSPASLPVSLGQRATISCRASKSVSTSGSSYLHWYQQKPGQPPKLLIYLASKLESGVPARFRGSGSGTDFTLNIHPVEEEDAATYYCQHNREVPPTFGGGTKLEIK	0.8
anti-CD300LB antibody CD-18 (antibody, V domains shown) VH: DVQLQESGPDLVKPSQSLSLTCTVTGYSITSGYSWHWIRQFPDNKLEWMGYILSRGDTNFNPSLKSRISITRSTSNNQFFLHFNSVTTEDTATYYCARDFFDYWGQGTTLTVSS VL: DVLMTQTPLSLPVSLGDQASISCRSSQSIVHSNGNTYLEWYLQKPGQSPKLLIYKVSDRFSGVPDRFSGSGSGTDFTLKISRVEAEDLGVYFCFQGSHVPYTFGGGTKLEIK	-0.1
